Values from ChEMBL document CHEMBL3616462

test: Cytotoxicity against Adenovirus Chicago 65089 infected human A549 cells; format: cell-based; settings: A549 cells infected with Adenovirus Chicago 65089
endpoint-name: CC50 (µM)

>>> result_number("COC(=O)[C@]1(C)CCC[C@]2(C)[C@H]3C[C@H]4C(C(C)C)=C[C@]3(CC[C@H]21)[C@H]1[C@@H]4[C@@H](OC(=O)CCC(=O)O)CC[C@@H]1OC(=O)CCC(=O)O")
10
>>> result_number("COC(=O)[C@H](C)NC(=O)[C@]1(C)CCC[C@]2(C)[C@H]3C[C@H]4C(C(C)C)=C[C@]3(CC[C@H]21)[C@@H]1C(=O)CCC(=O)[C@@H]14")
47
>>> result_number("COC(=O)[C@]1(C)CCC[C@]2(C)[C@H]3CC4C(C(C)C)=C[C@]3(CC[C@H]21)[C@@H]1NC(=O)CC[C@H](O)[C@H]41")
29
>>> result_number("COC(=O)[C@H]1[C@@H](C(=O)OC)C2(C(=O)OC)CC[C@@H]3[C@](C)(CCC[C@@]3(C)C(=O)OC)[C@H]2C[C@H]1C(=O)C(C)C (stereo not given in full)")
32
>>> result_number("COC(=O)[C@]1(C)CCC[C@]2(C)[C@H]3C[C@H]4C(C(C)C)=C[C@]3(CC[C@H]21)[C@@H]1/C(=N/O)CCC2(OCCO2)[C@@H]14")
9.8
